- assay procedure: in vitro
- condition details: male, Wistar Han, rat, tissue homogenate, pH 6.8
Could you please mark 1.0 for values of half-life below 0.7 h and 0.0 for values at or above it?

>  <compound>
CC(OC(=O)[C@@H](NC(=O)[C@@H](N)CCCCN)C(C)C)OC(=O)N1CCC(OC(=O)C(O)(c2ccccc2)c2ccccc2)CC1.Cl.Cl (some centres unmarked)

>  <class label>
1.0

$$$$
>  <compound>
CC(OC(=O)[C@H](NC(=O)[C@@H](N)CCCCN)C(C)(C)C)OC(=O)N1CCC(OC(=O)C(O)(c2ccccc2)c2ccccc2)CC1.Cl.Cl (some centres unmarked)

>  <class label>
0.0

$$$$
>  <compound>
CC(OC(=O)[C@@H](NC(=O)[C@@H](N)CCCCN)C(C)(C)C)OC(=O)N1CCC(OC(=O)C(O)(c2ccccc2)c2ccccc2)CC1.Cl.Cl (some centres unmarked)

>  <class label>
0.0

$$$$
>  <compound>
CC(OC(=O)[C@H](NC(=O)[C@@H](N)CCCCN)C(C)C)OC(=O)N1CCC(OC(=O)C(O)(c2ccccc2)c2ccccc2)CC1.Cl.Cl (some centres unmarked)

>  <class label>
0.0

$$$$
